Biological target: KDM5B (Homo sapiens, UniProt Q9UGL1, A373G/DEL102-140/DEL143-371/Q372G)
Construct: A KDM5B construct encoding regions Phe26-Ile770 was amplified from an OriGene cDNA clone; 6x-histidine tag (TEV-cleavable) (N, cleaved yes); made in house; host or cells: Sf9 insect cells (baculovirus)
Sequence (Q9UGL1 with tags, fused parts or gaps DEL102-140/DEL143-371/Q372G/A373G): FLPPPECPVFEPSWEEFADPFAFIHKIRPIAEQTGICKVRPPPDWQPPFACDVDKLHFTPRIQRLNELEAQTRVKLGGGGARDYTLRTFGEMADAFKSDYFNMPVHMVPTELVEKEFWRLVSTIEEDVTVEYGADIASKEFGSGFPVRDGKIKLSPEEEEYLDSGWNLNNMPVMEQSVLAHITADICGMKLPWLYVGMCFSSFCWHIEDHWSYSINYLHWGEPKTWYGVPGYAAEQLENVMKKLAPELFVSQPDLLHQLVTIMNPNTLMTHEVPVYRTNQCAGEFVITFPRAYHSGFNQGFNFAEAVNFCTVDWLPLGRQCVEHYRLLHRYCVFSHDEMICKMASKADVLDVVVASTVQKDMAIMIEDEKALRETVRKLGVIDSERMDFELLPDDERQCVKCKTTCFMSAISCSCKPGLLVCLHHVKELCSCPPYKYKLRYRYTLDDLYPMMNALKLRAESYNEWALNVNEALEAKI
Assay: KDM5B 2-OG competition assay (AlphaScreen)
Assay type: biochemical
Settings: IC50 at 1 mM 2-OG, top 2-OG concentration (1 mM)
Protocol: KDM alpha screen selectivity Inhibition of histone demethylases was assessed using the histone demethylase AlphaScreen assay (Amplified Luminescence Proximity Homogenous Assay) as previously reported.[4] […] 2-OG competition assay were performed as described for the general KDM5B AlphaScreen method above, varying the 2-OG concentrations from a range of 1mM to 0.5 μM. Data were normalized to the no enzyme control and the IC50 determined from the nonlinear regression curve fit using GraphPad Prism 7.
Quantity: IC50
Write the numeric value and follow it with the unit.

Entry "C=CC(=O)Nc1cccc(CN(C)CCc2cnn(-c3nccc4c(=O)[nH]cnc34)c2)c1" : reported IC50 = ?
110 nM
